assay: Cytotoxicity against human KATO III cells after 3 days by MTT assay; type: functional, cell-based, KATO III cell; conditions: 72 h
Reported IC50 values are given for each entry in this list.
Provide the reading as a plain figure in µM.

Example results:
CC1=Cc2nc(C)cc3cc(OCCOCCO)cc(c23)O1 : 10.1
CN(C)CCN1C(=O)c2cccc3cc(N)cc(c23)C1=O [AMONAFIDE] : 9.24

Let us examine a further case.
Task item: Please look up its IC50: `CC1=Cc2nc(C)cc3cc(OCCN(C)C)cc(c23)O1`
Reply: 9.82
